# TEST_TARGET: Glycophorin A (Homo sapiens, UniProt P02724 20-91)
# PROTOCOL: ELONA; one-site fit, R2 0.716; text says low micromolar; ELONA: protein coated at 10 nM in carbonate/bicarbonate pH 9.6; aptamer (1.5625 nM-5 uM, 95 C 5 min then snap-cooled) in 1x DPBS, 0.55 mM MgCl2, 0.05% Tween-20, 1% BSA, 1 h, room temperature; SA-HRP/TMB read-out at 450 nm
# CONDITION_INFO: protein: recombinant; label: 5' biotin; hairpin, 2 loops predicted by Mfold; CD indicates parallel G4
RECORDED_ENDPOINT: Kd (nM)

INSERT INTO measurements (binder, recorded_endpoint, experimental_value) VALUES
  ('N4 aptamer (76 nt) (structured_DNA) DNA: ATCCAGAGTGACGCAGCATGCGGGGAGAGGAGTGTGGGATGGGTTTGTTTGTTTAGGGTGGACACGGTGGCTTAGT', 'Kd', 354);
